- Test system: BEAS-2B
- protocol.description: MTT cytotoxicity in nonmalignant bronchial epithelium cells
- Assay type: cell-based
- condition.notes: Homo sapiens, BEAS-2B; nonmalignant cells, 48 h; read-out: TGI BEAS-2B
The threshold is inclusive: IC (TGI) of exactly 40 µM counts as Y; values below receive N.

>>> label_class("N#C[Se]c1ccc(NC(=O)c2ccco2)cc1 [I.2h]")
"Y"
>>> label_class("CCOP(=O)(Nc1ccc([Se][Se]c2ccc(NP(=O)(OCC)OCC)cc2)cc1)OCC [II.1d]")
"N"
>>> label_class("O=C(Nc1ccc([Se][Se]c2ccc(NC(=O)c3ccc(Cl)cc3)cc2)cc1)c1ccc(Cl)cc1 [I.1b]")
"Y"

Task: Please indicate if the recorded IC (TGI) for N#C[Se]c1ccc(NC(=O)c2ccc(C(F)(F)F)cc2)cc1 [I.2f] meets or exceeds 40 µM.
Result: Y

###

- Test system: HT-29
- protocol.description: cells
- condition.notes: Homo sapiens, HT-29, 48 h, read-out: Cell growth (%) HT-29
activity at 10 µM listing for selected compounds.
Report as a plain number; the unit % is understood.

>>> quantitative_readout("O=C(Nc1ccc([Se][Se]c2ccc(NC(=O)c3cccs3)cc2)cc1)c1cccs1 [I.1i]")
98.2

Please look at the following compound next.
Task: // fetch HT-29 activity at 10 µM for N#C[Se]c1ccc(NC(=O)c2cccc3ccccc23)cc1 [I.2m]
Result: 101

###

IC (TGI) listing for selected molecules.
- Test system: 184B5
- protocol.description: MTT cytotoxicity in nonmalignant mammary gland derived cells
- Type: cell-based
- condition.notes: Homo sapiens, 184B5; nonmalignant cells, 48 h; read-out: TGI 184B5
Report as a plain number; the unit µM is understood.

>>> quantitative_readout("O=C(Nc1ccc([Se][Se]c2ccc(NC(=O)c3ccc(C(F)(F)F)cc3)cc2)cc1)c1ccc(C(F)(F)F)cc1")
44
>>> quantitative_readout("CCOP(=O)(Nc1ccc([Se][Se]c2ccc(NP(=O)(OCC)OCC)cc2)cc1)OCC")
7.01
>>> quantitative_readout("O=C(Nc1ccc([Se][Se]c2ccc(NC(=O)c3ccc([N+](=O)[O-])cc3)cc2)cc1)c1ccc([N+](=O)[O-])cc1")
33.8
>>> quantitative_readout("COP(=O)(Nc1ccc([Se][Se]c2ccc(NP(=O)(OC)OC)cc2)cc1)OC")
7.2

Please look at the following molecule next.
Task: Tell me the measured IC (TGI) of O=C(Nc1ccc([Se][Se]c2ccc(NC(=O)c3ccco3)cc2)cc1)c1ccco1 , please.
Result: 47.2

###

- protocol.description: MTT cytotoxicity in nonmalignant bronchial epithelium cells
- Type: cell-based
- condition.notes: human; nonmalignant cells, 48 h; read-out: LC50 BEAS-2B
LC50 (50% lethal concentration) listing for selected molecules.
Report as a plain number; the unit µM is understood.

>>> quantitative_readout("CCOP(=O)(Nc1ccc([Se][Se]c2ccc(NP(=O)(OCC)OCC)cc2)cc1)OCC")
8.54

Please look at the following molecule next.
Task: Tell me the measured LC50 (50% lethal concentration) of N#C[Se]c1ccc(NC(=O)c2ccc(C(F)(F)F)cc2)cc1 , please.
Result: 73.2

###

- Test system: MCF-7
- protocol.description: cells
- condition.notes: Homo sapiens, MCF7, 48 h, read-out: Cell growth (%) MCF-7
activity at 10 µM listing for selected molecules.
Lab note: write values as number then unit, every time.

Example entries begin here.
>>> result("Cc1ccc(OP(=O)(Nc2ccc([Se][Se]c3ccc(NP(=O)(Oc4ccc(C)cc4)Oc4ccc(C)cc4)cc3)cc2)Oc2ccc(C)cc2)cc1 [II.1g]")
"82.6%"
>>> result("N#C[Se]c1ccc(NP(=O)(Nc2ccccc2)Oc2ccccc2)cc1 (centres unmarked) [II.2f]")
"61.4%"
>>> result("N#C[Se]c1ccc(NC(=O)c2cccs2)cc1 [I.2i]")
"74.5%"

Task: Tell me the measured activity at 10 µM of CCOP(=O)(Nc1ccc([Se]C#N)cc1)OCC [II.2d] , please.
Result: -17.2%

Task: Tell me the measured activity at 10 µM of COc1ccc(C(=O)Nc2ccc([Se][Se]c3ccc(NC(=O)c4ccc(OC)cc4)cc3)cc2)cc1 [I.1c] , please.
Result: 79%
